Can you tell me enrichment for the items I'm about to list?
B1: NF2 (merlin) isoform 7, human, full length (507 aa, lacks exons 2-3 = isoform-1 residues 39-121; exon-16 C-terminus), P35240-4 (parent)
chain: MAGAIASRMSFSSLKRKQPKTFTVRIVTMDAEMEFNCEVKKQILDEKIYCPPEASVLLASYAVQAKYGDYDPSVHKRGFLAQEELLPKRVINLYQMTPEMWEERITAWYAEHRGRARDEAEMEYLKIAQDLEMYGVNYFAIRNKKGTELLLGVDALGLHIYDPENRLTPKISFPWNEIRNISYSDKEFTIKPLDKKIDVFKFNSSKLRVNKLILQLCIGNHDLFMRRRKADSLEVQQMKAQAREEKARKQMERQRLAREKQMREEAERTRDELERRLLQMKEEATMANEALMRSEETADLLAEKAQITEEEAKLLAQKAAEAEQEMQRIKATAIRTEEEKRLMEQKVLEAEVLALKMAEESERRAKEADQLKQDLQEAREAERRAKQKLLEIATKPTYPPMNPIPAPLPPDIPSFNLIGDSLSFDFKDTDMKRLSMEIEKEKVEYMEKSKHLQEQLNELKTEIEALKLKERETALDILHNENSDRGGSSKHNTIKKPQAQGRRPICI

Variants of: B1
Assay: reverse yeast two-hybrid deep mutational scan (rY2H-seq): NF2 isoform 7 mutant library as bait mated with wild-type prey strains; selection on medium lacking adenine for non-interacting pairs; NextSeq paired-end sequencing; enrichment vs …
Settings: with EMILIN1 (elastin microfibril interfacer 1), Q9Y6C2; yeast diploids after mating (RBait_S3 x RPrey_S3), 30 °C, selection for reporter genes on NB agar; human tyrosine kinase ABL2 co-expressed as the active kinase …; HIGHER = WEAKER BINDING (the opposite of display enrichments): higher = stronger loss of interaction: reverse Y2H selects yeast in which bait and prey do NOT interact (growth without adenine), so a …; hits-only table; scale: rY2H score; numbering: uniprot, sequence starts at 1
One number for each entry.

>>> value_measured("P396L")
2.65
>>> value_measured("A406Q")
2.56
>>> value_measured("E359K")
1.99
>>> value_measured("L300C")
2.3
>>> value_measured("N480A")
1.73

Please go through the list and note enrichment for each variant.
1. P163L
2. E259V
3. Q345L
4. R248P
5. T189I
6. K229L

Response line:
[3.88, 1.65, 2.57, 1.52, 1.59, 1.52]

Working through the 4 variants below one at a time, give enrichment for each.
1. A406I
2. D299T
3. E382A
4. S60F

Response line:
[3.97, 1.88, 1.65, 3.78]

Source of measurements: paper PMC10244618
